Recorded values, source paper PMC2861344.

target: NR1aNR2B NMDA receptor (NR2B subunit) (Rattus norvegicus, UniProt P35439+Q00960); test: whole-cell patch clamp, agonist concentration-response
Sequence (Q00960 27-1482, other chains not shown): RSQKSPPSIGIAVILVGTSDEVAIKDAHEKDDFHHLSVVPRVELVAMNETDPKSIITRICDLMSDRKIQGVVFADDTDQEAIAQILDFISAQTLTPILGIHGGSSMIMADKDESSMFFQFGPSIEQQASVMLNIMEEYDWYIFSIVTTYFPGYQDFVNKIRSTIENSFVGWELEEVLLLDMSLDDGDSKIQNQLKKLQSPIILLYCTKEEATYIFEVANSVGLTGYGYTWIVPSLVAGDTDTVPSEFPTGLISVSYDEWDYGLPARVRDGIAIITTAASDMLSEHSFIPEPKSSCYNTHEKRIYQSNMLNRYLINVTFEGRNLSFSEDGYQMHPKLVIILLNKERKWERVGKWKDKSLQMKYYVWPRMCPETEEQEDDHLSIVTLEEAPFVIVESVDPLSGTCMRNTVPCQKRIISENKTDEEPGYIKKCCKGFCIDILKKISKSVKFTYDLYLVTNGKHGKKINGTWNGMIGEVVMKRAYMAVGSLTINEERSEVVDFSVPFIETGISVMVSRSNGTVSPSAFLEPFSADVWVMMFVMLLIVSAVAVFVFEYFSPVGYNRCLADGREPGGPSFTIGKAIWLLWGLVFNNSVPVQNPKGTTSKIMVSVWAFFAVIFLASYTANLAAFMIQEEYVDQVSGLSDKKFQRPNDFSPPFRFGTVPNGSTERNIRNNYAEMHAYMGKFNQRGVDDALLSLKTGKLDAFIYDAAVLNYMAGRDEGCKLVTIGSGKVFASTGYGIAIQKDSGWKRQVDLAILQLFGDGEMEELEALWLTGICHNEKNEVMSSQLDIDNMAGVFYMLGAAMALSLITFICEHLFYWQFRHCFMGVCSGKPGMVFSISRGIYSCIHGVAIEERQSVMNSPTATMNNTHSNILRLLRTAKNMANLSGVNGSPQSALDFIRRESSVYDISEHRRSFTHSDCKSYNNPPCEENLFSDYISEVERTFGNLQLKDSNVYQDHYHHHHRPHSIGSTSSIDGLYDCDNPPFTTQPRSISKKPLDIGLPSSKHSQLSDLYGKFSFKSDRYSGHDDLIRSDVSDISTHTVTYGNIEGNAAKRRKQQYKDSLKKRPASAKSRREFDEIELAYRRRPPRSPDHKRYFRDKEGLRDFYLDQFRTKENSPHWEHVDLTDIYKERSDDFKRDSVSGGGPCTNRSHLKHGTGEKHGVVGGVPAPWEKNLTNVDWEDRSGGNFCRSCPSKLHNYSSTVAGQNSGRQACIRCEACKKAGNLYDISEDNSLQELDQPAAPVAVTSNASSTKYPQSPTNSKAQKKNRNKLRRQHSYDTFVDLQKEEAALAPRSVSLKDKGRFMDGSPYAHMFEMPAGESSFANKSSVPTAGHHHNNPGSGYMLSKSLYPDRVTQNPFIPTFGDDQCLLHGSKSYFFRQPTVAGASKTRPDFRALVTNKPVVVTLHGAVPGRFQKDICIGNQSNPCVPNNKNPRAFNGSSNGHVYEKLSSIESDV
quantity-name: EC50 (µM)
Give bare numbers, in µM.

# input Bench note: what EC50 did CN[C@H](CC(=O)O)C(=O)O show?
# output 14
